Reference for the values: patent US20210054078A1

assayed-system: T1, human PD-L1 (soluble protein of the kinetic measurements) (human, UniProt Q9NZQ7 19-238, limits assumed)
T1 construct: kept apart from the His-tag protein of the ELISA; also called hPD-L1
T1 sequence (Q9NZQ7 19-238 limits assumed): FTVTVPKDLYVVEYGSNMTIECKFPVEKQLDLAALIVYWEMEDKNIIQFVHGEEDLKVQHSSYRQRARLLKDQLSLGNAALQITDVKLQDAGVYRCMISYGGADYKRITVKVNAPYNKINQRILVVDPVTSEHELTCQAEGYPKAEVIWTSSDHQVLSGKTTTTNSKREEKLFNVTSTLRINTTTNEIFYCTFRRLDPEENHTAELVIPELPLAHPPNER
test-details: BLI (Octet), antibody fixed on biosensor, PD-L1 in solution
Kindly supply the reported Kd values for the records listed here.
# output: bare number, implied unit nM

Entry ME4.A12 anti-PD-L1 antibody (IgG form) (antibody, V domains shown) VH: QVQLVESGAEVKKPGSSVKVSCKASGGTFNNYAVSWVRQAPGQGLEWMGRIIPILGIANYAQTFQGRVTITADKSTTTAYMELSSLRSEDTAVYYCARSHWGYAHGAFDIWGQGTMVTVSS VL: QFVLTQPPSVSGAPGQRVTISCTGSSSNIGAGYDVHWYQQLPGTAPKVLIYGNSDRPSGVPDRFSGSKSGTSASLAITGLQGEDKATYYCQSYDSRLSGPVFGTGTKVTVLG , Kd reported as 0.134

The binder listed as ME4.A11 anti-PD-L1 antibody (IgG form) (antibody, V domains shown) VH: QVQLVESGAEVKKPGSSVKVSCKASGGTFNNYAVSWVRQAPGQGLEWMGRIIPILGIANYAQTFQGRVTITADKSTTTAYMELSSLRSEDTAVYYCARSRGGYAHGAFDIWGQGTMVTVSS VL: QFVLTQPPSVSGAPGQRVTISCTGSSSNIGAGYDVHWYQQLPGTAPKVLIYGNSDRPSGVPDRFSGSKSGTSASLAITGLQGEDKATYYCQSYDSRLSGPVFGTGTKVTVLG has a reported Kd of 0.918
